# System: Clostridium perfringens DSM756
# Type: cell-based
# reported conditions: Experiment 1; 1/2 MHB pH 6; lysozymes 100 μg/ml, Bacitracin zinc salt 50 μg/ml
recorded metric: Diameter of clearing zone (mm)
The figure you give is taken to be in mm; do not add the unit.

*Q* Give the measured Diameter of clearing zone (mm) for SEQ ID NO: 264: mature GH24 lysozyme from Chaetomium thermophilum, comprising LED (protein, listed as Chaetomium thermophilum, mat_peptide (1)..(249), mature GH24 lysozyme from Chaetomium thermophilum, comprising LED) PASAYAITGDNVNCRSGPGTSYAVKKVYKKGTDVKISCQTTGTNINGNNLWDKTSDGCYVSDYYVKTGSNGYVTSKCSSSGGSTCAAPKSNQATVDLIAEFEGFRANIYTDAAGYATVGYGHKCQKAKCAEVKYKIPLSKADGKKLLADDMRSFEVCITNMLNSKAKLNYNQFGALVSWSFNVGCGAAKSSTLIKRLNNGENVNKVLSEELPKWNKAGGKVLQGLVRRRAAEVALAKKSGSSQALPVKC
*A* 10
